Below are IC50 measurements against ROCK2 (Homo sapiens, UniProt O75116) drawn from the literature.
Sequence (O75116 whole entry, species assumed): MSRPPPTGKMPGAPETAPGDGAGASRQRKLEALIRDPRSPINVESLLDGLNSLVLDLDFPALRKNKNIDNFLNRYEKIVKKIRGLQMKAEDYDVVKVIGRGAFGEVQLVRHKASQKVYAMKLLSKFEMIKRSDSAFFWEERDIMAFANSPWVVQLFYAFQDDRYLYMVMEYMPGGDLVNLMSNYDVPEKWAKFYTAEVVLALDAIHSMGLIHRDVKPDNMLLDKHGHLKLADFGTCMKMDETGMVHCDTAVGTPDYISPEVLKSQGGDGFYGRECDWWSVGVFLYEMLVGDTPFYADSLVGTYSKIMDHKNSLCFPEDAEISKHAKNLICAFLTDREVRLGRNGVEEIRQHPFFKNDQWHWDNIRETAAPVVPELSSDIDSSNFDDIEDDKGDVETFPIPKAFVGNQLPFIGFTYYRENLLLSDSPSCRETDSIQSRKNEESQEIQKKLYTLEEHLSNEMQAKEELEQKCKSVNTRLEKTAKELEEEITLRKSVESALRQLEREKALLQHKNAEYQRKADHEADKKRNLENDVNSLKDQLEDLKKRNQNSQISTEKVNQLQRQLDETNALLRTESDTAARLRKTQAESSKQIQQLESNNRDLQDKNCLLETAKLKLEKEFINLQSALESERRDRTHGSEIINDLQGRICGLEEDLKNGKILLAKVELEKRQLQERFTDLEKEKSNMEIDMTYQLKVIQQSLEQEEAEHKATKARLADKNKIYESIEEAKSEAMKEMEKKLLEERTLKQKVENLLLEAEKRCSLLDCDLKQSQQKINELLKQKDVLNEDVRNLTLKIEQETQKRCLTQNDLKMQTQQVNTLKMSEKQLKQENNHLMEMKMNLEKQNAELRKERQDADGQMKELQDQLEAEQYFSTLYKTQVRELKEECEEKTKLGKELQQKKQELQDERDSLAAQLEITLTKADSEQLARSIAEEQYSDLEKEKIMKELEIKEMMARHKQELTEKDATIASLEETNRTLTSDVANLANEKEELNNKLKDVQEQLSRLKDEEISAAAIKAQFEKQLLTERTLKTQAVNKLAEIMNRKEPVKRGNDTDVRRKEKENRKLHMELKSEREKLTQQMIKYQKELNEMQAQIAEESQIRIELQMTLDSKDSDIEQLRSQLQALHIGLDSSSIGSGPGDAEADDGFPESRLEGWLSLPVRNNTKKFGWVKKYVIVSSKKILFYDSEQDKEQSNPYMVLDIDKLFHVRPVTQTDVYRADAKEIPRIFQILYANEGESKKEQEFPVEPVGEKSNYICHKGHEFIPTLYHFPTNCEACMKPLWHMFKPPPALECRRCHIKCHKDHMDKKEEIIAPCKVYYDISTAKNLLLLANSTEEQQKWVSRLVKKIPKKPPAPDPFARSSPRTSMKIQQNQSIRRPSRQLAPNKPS
Respond numerically; units are nM and should not be typed.

Examples with answers:
                                   compound  unit_spec  result
0  COc1cc(C(=O)NCc2ccc(Cl)c(C(F)(F)F)c2)ccc1-c1cn[nH]c1         nM    33.3
1  Cn1ncc2cc(C(N)=O)c(O[C@H]3C[C@@]4(C[C@H](NC(=O)c5cc(-c6ccc(S(C)(=O)=O)cc6)n(C(F)F)n5)C4)C3)nc21 (stereo partly shown)         nM     2.3

// Input: O=C(Nc1ccc2c(c1)OCc1cnccc1-2)c1cnccn1 . Output its IC50 only.
2940
